Assay: Cytotoxicity against human RWPE1 cells assessed as cell viability after 24 hrs by MTT assay
Assay type: cell-based
Details: RWPE-1, 24 h
pIC50: −log10 of the molar value.
So I've got a bunch of molecules here, and I need their pIC50 values.

Batch of 4 molecules: report pIC50 for each.
1. C=C1[C@@H]2CC[C@H]3[C@]4(C)CCCC(C)(C)[C@H]4C[C@@H](O)[C@]3(C2)[C@H]1O
2. C=C1C(O)[C@@]23CC[C@H]4[C@@](C)(CCC[C@@]4(C)C(=O)O)[C@@H]2CC[C@]1(O)C3 (stereo partly drawn)
3. C[C@H]1C(=O)[C@@]23CC[C@@H]4[C@](C)(CO)CCC[C@@]4(C)C2=CC[C@]1(O)C3
4. C=C1C(=O)[C@H]2C[C@]1(O)CC1=C2[C@]2(C)CCC[C@](C)(CO)[C@H]2CC1

1: < 4.30; 2: < 4.30; 3: < 4.30; 4: 4.73

Batch of 4 molecules: report pIC50 for each.
1. C=C1[C@@H]2CC[C@@H]3[C@@](CC[C@@H]4C(C)(C)CC[C@H](O)[C@]43C)(C2)[C@@H]1O
2. C=C1[C@@H]2CC(=O)[C@H]3[C@]4(C)CCCC(C)(C)[C@H]4CC[C@]3(C2)[C@@H]1O
3. C=C1C(O)[C@@]23CC[C@H]4[C@@](C)(CCC[C@@]4(C)C(=O)OCCN4CCN(C)CC4)[C@@H]2CC[C@]1(O)C3 (stereo partly drawn)
4. C=C1C(=O)[C@@]23CC[C@@H]4[C@@](C)(CO)CCC[C@@]4(C)C2=CC[C@]1(O)C3

< 4.30
< 4.30
< 4.30
4.93

* * *

Assay: Cytotoxicity against human RWPE1 cells assessed as cell viability after 24 hrs by MTT assay
Type: cell-based
Details: RWPE-1, 24 h
Assay readout: IC50

C[C@@H]1C(=O)[C@H]2C[C@]1(O)CC1=C2[C@]2(C)CCC[C@@](C)(CO)[C@H]2CC1 : > 50 µM
C=C1C(=O)[C@@]23CC[C@H]4[C@@](C)(CCC[C@@]4(C)C(=O)OCCN4CCN(C)CC4)[C@@H]2CC[C@]1(O)C3 : 29.3 µM
C[C@@H]1C(=O)[C@@]23CC[C@@H]4C(C)(C)[C@H](O)CC[C@@]4(C)[C@@H]2[C@@H](O)C[C@@H]1C3 : > 50 µM
C=C1[C@@H]2C[C@H](O)[C@H]3[C@]4(C)CCCC(C)(C)[C@H]4CC[C@]3(C2)[C@@H]1O : > 50 µM
C=C1[C@@H]2CC[C@H]3[C@]4(C)CCC[C@](C)(C(=O)O)[C@H]4CC[C@]3(C2)[C@@H]1OC(C)=O : > 50 µM

Batch of 7 compounds: report IC50 for each.
1. C=C1[C@@H]2CC[C@H]3[C@]4(C)CCCC(C)(C)[C@H]4CC[C@]3(C2)[C@@H]1O
2. C=C1C(O)[C@@]23CC[C@H]4[C@@](C)(CCC[C@@]4(C)C(=O)OCCBr)[C@@H]2CC[C@]1(O)C3 (stereo not given in full)
3. C=C1[C@@H]2CC(=O)[C@H]3[C@]4(C)CCCC(C)(C)[C@H]4C[C@@H](O)[C@]3(C2)[C@@H]1O
4. C=C1[C@@H](O)[C@@]23CC[C@@H]4C(C)(C)CCC[C@@]4(C)[C@@H]2CC[C@@H]1[C@H]3O
5. C=C1[C@@H]2CC(=O)[C@H]3[C@]4(C)CCCC(C)(C)[C@H]4[C@@H](O)C[C@]3(C2)[C@@H]1O
6. C[C@H]1C(=O)[C@@]23CC[C@@H]4[C@@](C)(CO)CCC[C@@]4(C)C2=CC[C@]1(O)C3
7. C[C@@H]1C(=O)[C@H]2C[C@]1(O)CC1=C2[C@]2(C)CCC[C@](C)(CO)[C@H]2CC1

> 50 µM
> 50 µM
> 50 µM
> 50 µM
> 50 µM
> 50 µM
> 50 µM

Batch of 3 compounds: report IC50 for each.
1. C=C1C(=O)[C@@]23CC[C@@H]4C(C)(C)CCC[C@@]4(C)[C@@H]2[C@@H](O)C[C@@H]1C3
2. C[C@H]1C(=O)[C@@]23CC[C@@H]4[C@@](C)(C=O)CCC[C@@]4(C)C2=CC[C@]1(O)C3
3. C=C1C(=O)[C@@]23CC[C@@H]4[C@](C)(CO)CCC[C@@]4(C)C2=CC[C@]1(O)C3

1. 5.2 µM
2. > 50 µM
3. 13.2 µM
